Field: inhibition. Provide a value for each of the compounds that follow.
# protocol: inhibitors of HIV fusion peptide binding, primary screen, biochemical, uHTS, fluorescence dequenching (AID 1986)
# conditions.used: cell-free peptide binding, 30 min, at 20 µM, active compounds read high
In all, about 290,000 compounds went through this assay and about 890 (0.31%) were called active. What follows is part of a selection rich in actives, with near analogues and random picks from the rest.
Numbers only, in %.

Reference set (8 entries):
| compound | inhibition [%] |
| --- | --- |
| CN(C)[C@@H]1C(=O)C(C(N)=O)=C(O)[C@@]2(O)C(=O)C3=C(O)c4c(O)ccc(Cl)c4[C@@H](O)[C@H]3C[C@@H]12 | 58.4 |
| Cc1ccccc1NC(=O)Cn1c(=O)sc2ccccc21 | -1.5 |
| COC(=O)c1cc(OC)c(OC)cc1NC(=O)c1csc(C)c1 | -1.1 |
| C=C1c2cccc(O)c2C(O)=C2C(=O)[C@]3(O)C(O)=C(C(N)=O)C(=O)[C@@H](N(C)C)[C@@H]3[C@@H](O)[C@H]12 | 63.7 |
| COc1cccc(OC)c1C(=O)Oc1ccc2c(c1)O/C(=C\c1ccncc1)C2=O | 3.9 |
| Cc1ccc(Sc2ccc(/C=C3/C(=O)NN(c4ccccc4)C3=O)o2)cc1 | 9.4 |
| O=C1NN(c2ccccc2)C(=O)/C1=C/c1ccc(Sc2ccc(Cl)cc2)o1 | 17.5 |
| COC(=O)c1ccc(N2NC(=O)/C(=C/c3cc(OC)c(O)c(OC)c3)C2=O)cc1 | 138 |

Parameters: items (list). Returns: inhibition for each item.
1. O=C(Oc1ccc2c(c1)O/C(=C\c1ccncc1)C2=O)c1ccccc1
2. CCNc1nc(NC(C)C)nc(SCCOC(=O)c2ccccc2)n1
3. CC(=O)Oc1ccc2c(c1)O/C(=C\c1ccncc1)C2=O
4. CCC1=NN2C(=N)/C(=C\c3cccn3-c3c(C)cccc3C)C(=O)N=C2S1
5. CN(C)c1ccc(O)c2c1CC1CC3[C@@H](N(C)C)C(=O)C(C(N)=O)=C(O)[C@]3(O)C(=O)C1=C2O (stereo not given in full)
6. COc1cc(/C=C2/C(=O)NN(c3cccc(Cl)c3)C2=O)cc(OC)c1O
7. COc1ccccc1CN1C(=S)SC(C)(C)C1NO (stereo not given)

**Result**
86.3
2.3
106
25.7
54
104
-0.5

###

# protocol: inhibitors of HIV fusion peptide binding, primary screen, biochemical, uHTS, fluorescence dequenching (AID 1986)
# conditions.used: cell-free peptide binding, 30 min, at 20 µM, active compounds read high
Among all 290,000 compounds or so, about 890 (0.31%) were called active. What follows is part of a selection rich in actives, with near analogues and random picks from the rest.
measured.attribute: inhibition (%)
Numbers only, in %.

Reference set (5 entries):
| compound | value.units | test.result |
| --- | --- | --- |
| O=C(NC(=S)NC1CCSC1=O)c1ccc([N+](=O)[O-])cc1 (stereo not drawn) | % | -1.4 |
| O=C1c2ccccc2C(=O)N1c1ccc(Cl)cc1 | % | -5.5 |
| COc1cc(OC)cc(C(=O)n2nc(C)cc2C)c1 | % | -0.7 |
| CSC1=NSC2=NC(=O)/C(=C\c3cccs3)C(=N)N12 | % | 45.4 |
| O=C(c1nc2ccccn2c1CNCC1OCCc2ccccc21)N1CCOCC1 (stereo not drawn) | % | -0.8 |

Parameters: items (list). Returns: inhibition for each item.
1. O=C(Nc1ccc(Cl)cc1C(=O)O)c1ccc2c(c1)C(=O)N(Cc1ccco1)C2=O
2. O=C1C=C(Nc2ccc(Cl)cc2)C(=O)N1c1ccc(Cl)cc1
3. CCN1C(=O)/C(=C/c2ccc(N3CCCC3)cc2)NC1=S
4. Cc1ccc(/C=C(\C#N)C(=O)Nc2cccc3ncccc23)o1
5. COc1ccccc1-n1c(C)nc2cc(C(=O)NCC3CCCO3)ccc21 (stereo not drawn)

**Result**
1. 50
2. 54.8
3. 149
4. 77.8
5. 0.3
